- system.under.test: NS3 protease (Hepacivirus C, UniProt C1KIQ2, V36L)
- protocol: Inhibition of HCV genotype 1a NS3 protease V36L mutant expressed in Escherichia coli BL21 (DE3)
attribute.measured: pIC50
Just the number, please; pIC50 means minus log10 of the concentration in mol/L.

[in] Requested field: pIC50. Item: `CCC[C@H](NC(=O)[C@@H]1[C@H]2CCC[C@H]2CN1C(=O)[C@@H](NC(=O)[C@@H](NC(=O)c1cnccn1)C1CCCCC1)C(C)(C)C)C(=O)C(=O)NC1CC1`
[out] 6.89

* * *

Would you kindly list EC50 for each of these molecules?
- Test system: Hepatitis C virus
- protocol: Antiviral activity against wild type Con1-mADE HCV replicon in human HuH7 cells after 48 hrs by RNA replicon assay
- Type: functional, organism-based, Hepacivirus hominis
- stated.conditions: subtype 1b Con1-mADE, Huh-7, 48 h

[in] What measured EC50 is associated with `CCC[C@H](NC(=O)[C@@H]1[C@H]2CCC[C@H]2CN1C(=O)[C@@H](NC(=O)[C@@H](NC(=O)c1cnccn1)C1CCCCC1)C(C)(C)C)C(=O)C(=O)NC1CC1` on Hepatitis C virus?
[out] 0.49 µM

[in] Thanks! And `NC(=O)c1ncn([C@@H]2O[C@H](CO)[C@@H](O)[C@H]2O)n1` ?
[out] 58 µM

* * *

- system.under.test: NS3 protease (Hepacivirus C, UniProt C1KIQ2, R155K/V36M)
- Sequence (C1KIQ2 entry or part of it R155K/V36M): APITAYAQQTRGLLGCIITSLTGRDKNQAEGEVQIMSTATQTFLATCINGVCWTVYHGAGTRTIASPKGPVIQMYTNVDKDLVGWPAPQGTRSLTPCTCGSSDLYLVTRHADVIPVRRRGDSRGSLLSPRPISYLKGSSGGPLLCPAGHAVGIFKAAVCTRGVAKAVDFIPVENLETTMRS
- protocol: Inhibition of HCV genotype 1a NS3 protease V36M/R155K double mutant expressed in Escherichia coli BL21 (DE3)
attribute.measured: IC50 (µM)
Field: numeric (µM). Do not append units.

[in] Requested field: IC50. Item: `CCC[C@H](NC(=O)[C@@H]1[C@H]2CCC[C@H]2CN1C(=O)[C@@H](NC(=O)[C@@H](NC(=O)c1cnccn1)C1CCCCC1)C(C)(C)C)C(=O)C(=O)NC1CC1`
[out] 3.4

* * *

- Test system: Hepatitis C virus
- protocol: Antiviral activity against HCV Con1-mADE replicon with NS3 serine protease V36G mutation in human HuH7 cells after 48 hrs by RNA replicon assay
- Type: functional, organism-based, Hepacivirus hominis
- stated.conditions: subtype 1b Con1-mADE, Huh-7, 48 h
attribute.measured: pEC50
Just the number, please; pEC50 means minus log10 of the concentration in mol/L.

[in] Requested field: pEC50. Item: CCC[C@H](NC(=O)[C@@H]1[C@H]2CCC[C@H]2CN1C(=O)[C@@H](NC(=O)[C@@H](NC(=O)c1cnccn1)C1CCCCC1)C(C)(C)C)C(=O)C(=O)NC1CC1 [TELAPREVIR]
[out] 5.27
